Cited source: the supplement of paper PMC10567573

Item-by-item account of protein stability index
B1: ZNF649 (parent)
chain: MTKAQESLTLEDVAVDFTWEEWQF

# Variants of: B1
# Assay Procedure: protein stability index of a GFP-peptide fusion (GPS, HEK-293T) (PSI 1-6); higher = more stable;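 also: lentivirally expressed fusions sorted by FACS into six bins by GFP to DsRed ratio, PSI derived from sequencing read proportions per bin multiplied by bin number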
# Assay Setup: c terminus: a fixed tail appended
Readout Name: protein stability index

INSERT INTO measurements (residue_sequence, numeric_value) VALUES
  ('MTKAQEQLTLEDVAVDFTWEEWQF [S7Q]', 3.68),
  ('MTKAQESLTLEDVSVDFTWEEWQF [A14S]', 3.06),
  ('MTKAQEGLTLEDVAVDFTWEEWQF [S7G]', 3.8),
  ('DTKAQESLTLEDVAVDFTWEEWQF [M1D]', 3.95),
  ('MTKAQVSLTLEDVAVDFTWEEWQF [E6V]', 1.75),
  ('MTKAAESLTLEDVAVDFTWEEWQF [Q5A]', 3.02),
  ('MTKAQESLTLEDVCVDFTWEEWQF [A14C]', 2.4),
  ('MVKAQESLTLEDVAVDFTWEEWQF [T2V]', 2.64),
  ('QTKAQESLTLEDVAVDFTWEEWQF [M1Q]', 3.89),
  ('MTKAQESLTLEDVAVDFYWEEWQF [T18Y]', 1.36),
  ('MTKAQESLTDEDVAVDFTWEEWQF [L10D]', 4.91),
  ('MTKAMESLTLEDVAVDFTWEEWQF [Q5M]', 2.92),
  ('CTKAQESLTLEDVAVDFTWEEWQF [M1C]', 2.82),
  ('MTKAQESLTLEDVAVDFTREEWQF [W19R]', 4.07),
  ('MTVAQESLTLEDVAVDFTWEEWQF [K3V]', 3.23),
  ('MTKAQESLTLEDVAVTFTWEEWQF [D16T]', 3.32),
  ('MTKAQESLTLEDVQVDFTWEEWQF [A14Q]', 3.61),
  ('MTKAQESLHLEDVAVDFTWEEWQF [T9H]', 3.81),
  ('MTKAHESLTLEDVAVDFTWEEWQF [Q5H]', 3.2),
  ('MTKAQESLTLEDVAVDFTWIEWQF [E20I]', 1.87),
  ('MTKAQESLTLMDVAVDFTWEEWQF [E11M]', 2.14),
  ('MTKAQEILTLEDVAVDFTWEEWQF [S7I]', 3.1),
  ('MTKAQESLTLEGVAVDFTWEEWQF [D12G]', 2.55),
  ('MTKAQESLTLEDVAVDFTWEEWVF [Q23V]', 2.08),
  ('MTKAQWSLTLEDVAVDFTWEEWQF [E6W]', 1.95),
  ('MTKAQESLTLEDVAVDFTWEEWLF [Q23L]', 2.05),
  ('MTKAQESLTLEDVAVDFTWEEMQF [W22M]', 3.72),
  ('MTKAQDSLTLEDVAVDFTWEEWQF [E6D]', 3.14),
  ('MTKAQESLTLEDVAVDFTWEEWQT [F24T]', 3.94),
  ('MTKAQESLTLEDVAVDFTWEEWQS [F24S]', 3.9),
  ('MTKAQESLTLEDVAVDFTWVEWQF [E20V]', 3.37),
  ('MTKAQESLTLEDVAVDFTWERWQF [E21R]', 3.17),
  ('MTKAQESLTLEDVAVDFTWEEWHF [Q23H]', 2.02),
  ('MTKAQESLTLEDVAVMFTWEEWQF [D16M]', 2.34),
  ('MTKAQESLTLEDVAVDDTWEEWQF [F17D]', 4.75),
  ('MTKAQESLTLEFVAVDFTWEEWQF [D12F]', 3.77),
  ('MTKADESLTLEDVAVDFTWEEWQF [Q5D]', 3.4),
  ('MTKAQESLTLEDVWVDFTWEEWQF [A14W]', 3.29),
  ('MTKAQESLTLEDVAVDFTCEEWQF [W19C]', 3.85),
  ('MTKAQESLTLEVVAVDFTWEEWQF [D12V]', 1.92),
  ('MTKCQESLTLEDVAVDFTWEEWQF [A4C]', 2.4),
  ('MTKAQESLKLEDVAVDFTWEEWQF [T9K]', 3.38),
  ('MNKAQESLTLEDVAVDFTWEEWQF [T2N]', 3.62),
  ('MTKAQEHLTLEDVAVDFTWEEWQF [S7H]', 2.6),
  ('MTKAQESLTAEDVAVDFTWEEWQF [L10A]', 3.8),
  ('MTKARESLTLEDVAVDFTWEEWQF [Q5R]', 2.46);
